test system: HEK293 cells; experiment: Cell-based killing assay of payloads (CellTiter-Glo), HEK293 cells; design: species or system human; conditions: Homo sapiens, HEK293, 120 h; 5-day incubation
pIC50: −log10 of the molar value.
Measured quantity: pIC50

1) CCCCCCON(C(=O)[C@@H](NC(=O)[C@H]1CCCCN1C)[C@@H](C)CC)[C@H](C[C@@H](OC(=O)NCCCC)c1nc(C(=O)N[C@@H](Cc2ccc(O)cc2)C[C@H](C)C(=O)O)cs1)C(C)C    8.28
2) C#CCCCCN(C(=O)[C@@H](NC(=O)[C@H]1CCCCN1C)[C@@H](C)CC)[C@H](C[C@@H](OC(C)=O)c1nc(C(=O)N[C@@H](Cc2ccc(O)cc2)C[C@H](C)C(=O)O)cs1)C(C)C    8.79
3) C#CCCCON(C(=O)[C@@H](NC(=O)[C@H]1CCCCN1C)[C@@H](C)CC)[C@H](C[C@@H](OC(C)=O)c1nc(C(=O)N[C@@H](Cc2ccc(O)cc2)C[C@H](C)C(=O)O)cs1)C(C)C    9.15
4) CC[C@H](C)[C@H](NC(=O)[C@H]1CCCCN1C)C(=O)N(CCCCc1cn(C)nn1)[C@H](C[C@@H](OC(C)=O)c1nc(C(=O)N[C@@H](Cc2ccc(N)cc2)CC(C)(C)C(=O)O)cs1)C(C)C    8.75
5) C#CCCCCN(C(=O)[C@@H](NC(=O)[C@H]1CCCCN1C)[C@@H](C)CC)[C@H](C[C@@H](OC(C)=O)c1nc(C(=O)N[C@@H](Cc2ccc(F)cc2)C[C@H](C)C(=O)O)cs1)C(C)C    9.55
6) CCCCCCON(C(=O)[C@@H](NC(=O)[C@H]1CCCCN1C)[C@@H](C)CC)[C@H](C[C@@H](OC(=O)NCC)c1nc(C(=O)N[C@@H](Cc2ccc(O)cc2)C[C@H](C)C(=O)O)cs1)C(C)C    7.69
7) C#CCCCON(C(=O)[C@@H](NC(=O)[C@H]1CCCCN1C)[C@@H](C)CC)[C@H](C[C@@H](OC(C)=O)c1nc(C(=O)N[C@@H](Cc2ccc(N)cc2)CC(C)(C)C(=O)O)cs1)C(C)C    9.99
8) CCCCCCNC(=O)O[C@H](C[C@H](C(C)C)N(OCCCCCC)C(=O)[C@@H](NC(=O)[C@H]1CCCCN1C)[C@@H](C)CC)c1nc(C(=O)N[C@@H](Cc2ccc(O)cc2)C[C@H](C)C(=O)O)cs1    8.32
9) C#CCCCON(C(=O)[C@@H](NC(=O)[C@H]1CCCCN1C)[C@@H](C)CC)[C@H](C[C@@H](OC(C)=O)c1nc(C(=O)N[C@@H](Cc2ccc(N)cc2)C[C@H](C)C(=O)O)cs1)C(C)C    9.14
10) C#CCCCON(C(=O)[C@@H](NC(=O)[C@H]1CCCCN1C)[C@@H](C)CC)[C@H](C[C@@H](OC(C)=O)c1nc(C(=O)N[C@@H](Cc2ccc(F)cc2)C[C@H](C)C(=O)O)cs1)C(C)C    9.18

* * *

test system: HCT15 cells; assay: cells; type: cell-based, human; details: HCT15 cells, without Verapamil, maximum % cell killing
Measured quantity: HCT-15 % Kill (%)

1) C#CCCCCN(C(=O)[C@@H](NC(=O)[C@H]1CCCCN1C)[C@@H](C)CC)[C@H](C[C@@H](OC(C)=O)c1nc(C(=O)N[C@@H](Cc2ccc(F)cc2)C[C@H](C)C(=O)O)cs1)C(C)C    95.8
2) CCCCCCN(C(=O)[C@@H](NC(=O)[C@H]1CCCCN1C)[C@@H](C)CC)[C@H](C[C@@H](OC(C)=O)c1nc(C(=O)N[C@@H](Cc2ccc(N)c(F)c2)CC(C)(C)C(=O)O)cs1)C(C)C    97.3
3) C#CCCCON(C(=O)[C@@H](NC(=O)[C@H]1CCCCN1C)[C@@H](C)CC)[C@H](C[C@@H](OC(C)=O)c1nc(C(=O)N[C@@H](Cc2ccc(N)cc2)C[C@H](C)C(=O)O)cs1)C(C)C    97.7
4) CC[C@H](C)[C@H](NC(=O)[C@H]1CCCCN1C)C(=O)N(CCCCc1cn(C)nn1)[C@H](C[C@@H](OC(C)=O)c1nc(C(=O)N[C@@H](Cc2ccc(N)cc2)CC(C)(C)C(=O)O)cs1)C(C)C    94.6
5) CCCCCCN(C(=O)[C@@H](NC(=O)[C@H]1CCCCN1C)[C@@H](C)CC)[C@H](C[C@@H](OC(C)=O)c1nc(C(=O)N[C@@H](Cc2ccc(N)cc2)CC(C)(C)C(=O)O)cs1)C(C)C    98.4
6) [2H]c1cc(C[C@@H](CC(C)(C)C(=O)O)NC(=O)c2csc([C@@H](C[C@H](C(C)C)N(CCCCC#C)C(=O)[C@@H](NC(=O)[C@H]3CCCCN3C)[C@@H](C)CC)OC(C)=O)n2)cc([2H])c1N    99.1
7) CCCCCON(C(=O)[C@@H](NC(=O)[C@H]1CCCCN1C)[C@@H](C)CC)[C@H](C[C@@H](OC(=O)NC)c1nc(C(=O)N[C@@H](Cc2ccc(N)cc2)CC(C)(C)C(=O)O)cs1)C(C)C    99
8) CCCCCCON(C(=O)[C@@H](NC(=O)[C@H]1CCCCN1C)[C@@H](C)CC)[C@H](C[C@@H](OC(=O)NCC)c1nc(C(=O)N[C@@H](Cc2ccc(O)cc2)C[C@H](C)C(=O)O)cs1)C(C)C    54.7
9) CC[C@H](C)[C@H](NC(=O)[C@H]1CCCCN1C)C(=O)N(CCCCc1c[nH]nn1)[C@H](C[C@@H](OC(C)=O)c1nc(C(=O)N[C@@H](Cc2ccc(N)cc2)CC(C)(C)C(=O)O)cs1)C(C)C    96.4
10) C#CCCCON(C(=O)[C@@H](NC(=O)[C@H]1CCCCN1C)[C@@H](C)CC)[C@H](C[C@@H](OC(C)=O)c1nc(C(=O)N[C@@H](Cc2ccc(F)cc2)C[C@H](C)C(=O)O)cs1)C(C)C    96.5
